assayInfo: gradient 5% acetonitrile 3 min, to 50% in 2 min, to 85% in 15 min, held 3 min, 100 µL/min
testSettings: column: Zorbax Extend-C18 2.1 x 50 mm; eluents: water / acetonitrile, 0.1% formic acid
quantityName: RP-LC retention time (s)

Entry O=C(NC1CC1)C1CCCN(c2nc3ncn(CC(=O)N4CCc5ccccc5C4)c(=O)c3s2)C1 (centres undefined) — recorded RP-LC retention time = 689

(a) O=C(C1=CCN(Cc2ccccc2)CC1)N1CCN(c2ccc(F)cc2)CC1
(b) C[C@@H](C(=O)O)c1ccc(-c2ccccc2)c(F)c1
Task item: Among a and b , whose measured RP-LC retention time is the smaller figure? # reply format: chosen label
Reply: a
(a: 655 s, b: 974 s)
